target_or_system: FAAH (Rattus norvegicus, UniProt P97612)
Construct: Frozen brains (without cerebellum) from Wistar rats were used; from tissue; host or cells: Wistar rat brain (without cerebellum), washed membrane pellets
Sequence (P97612 whole entry): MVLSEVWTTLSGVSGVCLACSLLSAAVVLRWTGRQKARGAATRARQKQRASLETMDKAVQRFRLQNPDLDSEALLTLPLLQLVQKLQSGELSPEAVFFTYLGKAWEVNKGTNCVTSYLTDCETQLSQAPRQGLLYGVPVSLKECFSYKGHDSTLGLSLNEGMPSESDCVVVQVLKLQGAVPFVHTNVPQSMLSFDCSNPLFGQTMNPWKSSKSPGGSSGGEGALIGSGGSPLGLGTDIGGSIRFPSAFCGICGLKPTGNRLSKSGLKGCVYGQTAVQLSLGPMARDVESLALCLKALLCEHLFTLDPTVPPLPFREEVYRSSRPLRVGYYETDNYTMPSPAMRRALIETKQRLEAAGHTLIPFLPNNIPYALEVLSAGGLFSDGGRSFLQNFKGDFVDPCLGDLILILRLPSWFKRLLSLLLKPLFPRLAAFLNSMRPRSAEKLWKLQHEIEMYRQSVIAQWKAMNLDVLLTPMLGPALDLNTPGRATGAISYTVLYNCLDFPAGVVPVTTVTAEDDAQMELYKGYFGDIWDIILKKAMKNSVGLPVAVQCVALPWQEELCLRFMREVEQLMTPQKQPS
assay_notes: In vitro FAAH activity in rat brain membranes, 3H-AEA substrate, % of control
Format: biochemical, Wistar rats
measurement_parameters: 100 nM test compound, low value = strong inhibitor
value_kind: In Vitro FAAH activity, 100 nM

> print(dat)
                           molecular.string                      value.kind          data.value
1  CN(C(=O)n1cnc(-c2ccc(Oc3ccc(C(N)=O)cc3)cc2)n1)c1ccccc1  In Vitro FAAH activity, 100 nM   49.9 % of control
2           O=C(Nc1ccc(F)cc1F)n1nnc2ccccc21  In Vitro FAAH activity, 100 nM  100.4 % of control
3  Cl.O=C(N1CCN(Cc2ccccc2)CC1)n1cnc(-c2ccc(OCc3ccccc3)cc2)n1  In Vitro FAAH activity, 100 nM   53.5 % of control
4    O=C(N1CCCC1)n1cnc(-c2ccc(Cl)c(Cl)c2)c1  In Vitro FAAH activity, 100 nM   31.6 % of control
5        CN(CCOCc1ccccc1)C(=O)n1nnc2ccccc21  In Vitro FAAH activity, 100 nM    0.1 % of control
6   O=C(N1CCC(CCCc2ccccc2)CC1)n1nnc2ccccc21  In Vitro FAAH activity, 100 nM    0.1 % of control
7     CN(C(=O)n1cnc(-c2cccc(O)c2)c1)C1CCCC1  In Vitro FAAH activity, 100 nM    7.5 % of control
8  NC(=O)c1ccc(-c2cn(C(=O)N3CCN(Cc4ccccc4)CC3)cn2)cc1  In Vitro FAAH activity, 100 nM    7.2 % of control
9  CC1(C)COCN1C(=O)n1c(Cl)nc(-c2ccc(Cl)cc2)c1Cl  In Vitro FAAH activity, 100 nM  106.2 % of control

----------
target_or_system: FAAH (Rattus norvegicus, UniProt P97612)
Construct: Frozen brains (without cerebellum) from Wistar rats were used; from tissue; host or cells: Wistar rat brain (without cerebellum), washed membrane pellets
assay_notes: In vitro FAAH activity in rat brain membranes, 3H-AEA substrate, % of control
Type: biochemical, Wistar rats
measurement_parameters: 100 nM test compound, low value = strong inhibitor
value_kind: In Vitro FAAH activity, 100 nM

> print(dat)
                                    compound          data.value
 1  Br.CN(C(=O)n1cnc(-c2ccc(OCCN3CCCCC3)cc2)c1)c1ccccc1     90 % of control
 2  CN(C(=O)n1cnc(-c2cccc(-c3cccc(Cl)c3)c2)c1)C1CCCCC1   65.6 % of control
 3         CN(CCCc1ccccc1)C(=O)n1nnc2ccccc21      0 % of control
 4  CC1(C)COCN1C(=O)n1nnc2cc(-c3cccc(C(N)=O)c3)ccc21   39.7 % of control
 5  O=C(N1CCN(C2CCCCC2)CC1)n1cnc(-c2ccc(F)c(F)c2)c1    0.3 % of control
 6     Cc1c(-c2ccccc2)ncn1C(=O)N(C)Cc1ccccc1     88 % of control
 7   CN(C(=O)n1cnc(-c2ccccc2F)c1)c1ccc(F)cc1     83 % of control
 8  O=C(N1CCC(OCCCc2ccccc2)CC1)n1nnc2ccccc21    0.1 % of control
 9  CC1(C)COCN1C(=O)n1cnc(-c2cccnc2)c1.Cl.Cl   76.6 % of control
10          CN1CCN(C(=O)n2nnc3ccccc32)CC1.Cl    2.5 % of control
11           COc1ccc(NC(=O)n2nnc3ccccc32)cc1   96.9 % of control
12  O=C(Nc1ccc(-c2ccccc2)cc1)n1ccc(-c2ccccc2)n1  103.8 % of control
13        CC1(C)COCN1C(=O)n1cnc(-c2ccccc2)c1   93.6 % of control
14  CN(C(=O)n1cnc(-c2ccc(F)c(F)c2)c1)C1CCCCC1   63.6 % of control
15  COc1ccc(-c2cn(C(=O)N3COCC3(C)C)cn2)cc1OC  108.6 % of control
16              O=C(NCc1ccccc1)n1nnc2ccccc21    2.2 % of control
17  Cl.N#Cc1ccc(Oc2ccc(-c3ncn(C(=O)N4CCN(c5ccccc5)CC4)n3)cc2)cc1    0.3 % of control
18  COc1ccc(-c2ncn(C(=O)N3CCC(CCCc4ccccc4)CC3)n2)cc1    0.2 % of control
19       CN(CCCCCc1ccccc1)C(=O)n1nnc2ccccc21      0 % of control
20               O=C(NC1CCCCC1)n1nnc2ccccc21      0 % of control
21     O=C(N1CCC(Cc2ccccc2)CC1)n1nnc2ccccc21      0 % of control
22  CN(C(=O)n1nnc2cc(-c3cccc(C(N)=O)c3)ccc21)C1CCCCC1    7.4 % of control
23  COc1cccc(-c2cccc(-c3cn(C(=O)N4COCC4(C)C)cn3)c2)c1   75.4 % of control
24    O=C(Nc1ccc(-c2ccccc2)cc1)n1nnc2ccccc21  105.4 % of control
25  CC1(C)COCN1C(=O)n1cnc(-c2cccc(-c3ccccc3)c2)c1   54.2 % of control
26  CN(C(=O)n1cnc(-c2cccc(-c3cccc(O)c3)c2)c1)C1CCCCC1    0.5 % of control
27  CN(C(=O)n1nnc2cc(-c3ccc(F)cc3)ccc21)C1CCCCC1   14.3 % of control
28  CN(Cc1ccccc1)C(=O)n1cnc(-c2ccc(Oc3ccc(C(N)=O)cc3)cc2)n1    0.4 % of control
29               O=C(Nc1ccccc1)n1nnc2ccccc21   93.8 % of control
30  CC1CC(C)CN(C(=O)n2nnc3ccccc32)C1 (centres unmarked)     21 % of control
31      O=C(N1CCSC1)n1cnc(-c2ccc(F)c(F)c2)c1   16.7 % of control
32       CN(Cc1ccccc1)C(=O)n1cnc(-c2cccs2)n1    0.9 % of control
33    O=C(Nc1ccc(Oc2ccccc2)cc1)n1nnc2ccccc21   90.7 % of control
34  O=C(N1CCS(=O)(=O)C1)n1cnc(-c2ccc(Cl)cc2)n1  107.7 % of control
35       CCN(CCOCc1ccccc1)C(=O)n1nnc2ccccc21    0.1 % of control
36  CN(C(=O)n1cnc(-c2ccc(OCCN3CCNCC3)cc2)c1)c1ccccc1.Cl.Cl   93.5 % of control
37  Cc1ccc(OC2CCN(C(=O)n3cnc(-c4ccc(F)cc4F)n3)CC2)cc1   34.5 % of control
38       O=C(N1CCOCC1)n1cnc(-c2ccc(Cl)cc2)n1   73.5 % of control
